# optical density annotations
# Measured On: mouse ACVR2A (mouse, UniProt P27038 20-135, limits assumed)
# Sequence (P27038 20-135 limits assumed): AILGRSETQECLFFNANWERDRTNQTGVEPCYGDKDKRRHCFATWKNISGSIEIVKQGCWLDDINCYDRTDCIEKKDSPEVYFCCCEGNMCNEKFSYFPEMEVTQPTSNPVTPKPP
# Test Summary: ELISA; note: test concentration or dose not given here
Give your result in OD as a bare value.

Below are worked cases with known answers.
373_B11 (antibody, V domains shown, VH/VL only) VH: EVQLLESGGGLVQPGGSLRLSCAASGFTFSSYSMNWVRQAPGKGLEWVANINYNSGYKGYADSVKGRFTISRDNSKNTLYLQMNSLRAEDTAVYYCARSATWHDTHLDYWGQGTLVTVSS VL: DIQMTQSPSSLSASVGDRVTITCRASQSILSYLNWYQQKPGKAPKLLIYAATSRASGVPSRFSGSGSGTDFTLTISSLQPEDFATYYCQQSYDNPLTFGGGTKVEIK :: 3.65
370_C04 (antibody, V domains shown, VH/VL only) VH: EVQLLESGGGLVQPGGSLRLSCAASGFTFSSYGMNWVRQAPGKGLEWVASINYNSGYTSYADSVKGRFTISRDNSKNTLYLQMNSLRAEDTAVYYCARSATWHDTHLDYWGQGTLVTVSS VL: DIQMTQSPSSLSASVGDRVTITCRASQSILSYLNWYQQKPGKAPKLLIYAASSLQSGVPSRFSGSGSGTDFTLTISSLQPEDFATYYCQQSYENPLTFGGGTKVEIK :: 2.63

Quick check: optical density of 374_E07 (antibody, V domains shown, VH/VL only) VH: EVQLLESGGGLVQPGGSLRLSCAASGFTFSDYSMNWVRQAPGKGLEWVAGINYNGGYTSYADSVKGRFTISRDNSKNTLYLQMNSLRAEDTAVYYCARSANWHDTALDYWGQGTLVTVSS VL: DIQMTQSPSSLSASVGDRVTITCRASQSIITYVNWYQQKPGKAPKLVIYAATSRASGVPSRFSGSGSGTDFTLTISSLQPEDFATYYCQQSYNTPLTFGGGTKVEIK ?
3.58

For the binder 375_D08 (antibody, V domains shown, VH/VL only) VH: EVQLLESGGGLVQPGGSLRLSCAASGFTFSDYGMNWVRQAPGKGLEWVSGINYNSGYKGYADSVKGRFTISRDNSKNTLYLQMNSLRAEDTAVYYCARSANWHDTALDYWGQGTLVTVSS VL: DIQMTQSPSSLSASVGDRVTITCRASQSIITYLNWYQQKPGKAPKLLIYAATSRASGVPSRFSGSGSGTDFTLTISSLQPEDFATYYCQQSYSTPLTFGGGTKVEIK , what optical density is on record?
3.4

Suppose we examine the binder 365_B09 (antibody, V domains shown, VH/VL only) VH: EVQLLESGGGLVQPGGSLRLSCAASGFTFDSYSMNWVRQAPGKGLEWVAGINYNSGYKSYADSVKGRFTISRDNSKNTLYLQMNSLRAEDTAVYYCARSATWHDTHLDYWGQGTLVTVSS VL: DIQMTQSPSSLSASVGDRVTITCRASQSILRYLNWYQQKPGKAPKLLIYAATSLHSGVPSRFSGSGSGTDFTLTISSLQPEDFATYYCQQSYDNPLTFGGGTKVEIK ; what optical density value has been reported?
3.32

Recorded values, source patent US20210380703A1.
